# target: Calpain-2 catalytic subunit (Sus scrofa, UniProt P43367)
# Sequence (P43367 whole entry): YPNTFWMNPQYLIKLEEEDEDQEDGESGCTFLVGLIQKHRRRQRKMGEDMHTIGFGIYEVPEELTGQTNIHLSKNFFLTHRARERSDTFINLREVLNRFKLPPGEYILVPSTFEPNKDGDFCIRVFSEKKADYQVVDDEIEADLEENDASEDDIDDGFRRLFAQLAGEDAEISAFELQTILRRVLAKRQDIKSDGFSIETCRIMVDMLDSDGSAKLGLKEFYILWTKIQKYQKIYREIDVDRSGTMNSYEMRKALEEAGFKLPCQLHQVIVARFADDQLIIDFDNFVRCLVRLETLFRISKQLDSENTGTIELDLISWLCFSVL
# assay-text: m-calpain protease blockers, concentration series – biochemical, fluorogenic peptide substrate, dose response (AID 1420)
# Format: functional
Quick reference for IC50 among some compounds

Solved entries (count: 5):
CC(C)Cn1c(SCC(=O)NC(=O)Nc2ccc3c(c2)OCCO3)nc2ccccc2c1=O
> 50 µM (not active)
CC1CC(=O)c2cnc(NCC3CCCO3)nc2C1 (configuration not stated)
6.33 µM (not active)
Cc1ccccc1CCN(C(=O)Cn1nnc2ccccc21)C(C(=O)NCC1CCCO1)c1nc2ccccc2n1C (configuration not stated)
29.6 µM (not active)
CSc1nc(SCC(=O)O)c2sc3nc(-c4ccccc4)c4c(c3c2n1)CCC4
3.74 µM (not active)
Cc1nn(-c2ccc(F)cc2)c2sc(C(=O)N3CCCCCC3)cc12
> 50 µM (not active)

For CCOC(=O)N1CCN(c2ccc(C(=O)c3cccc(F)c3)cc2)CC1 , what is its reported IC50?
14.3 µM (not active)

Same question, CO/N=C(\c1nonc1N)N1CCN(c2ccc(Cl)cc2[N+](=O)[O-])CC1 this time
> 50 µM (not active)

Same question, FC(F)(F)c1cccc(N2CCN(C(S)=NC3CCCC3)CC2)c1 this time
7.79 µM (not active)

Same question, Nc1n[nH]c(N)c1N=Nc1ccc(F)cc1 this time
30.8 µM (not active)

Same question, CCCCC(=O)OCC(=O)c1[nH]c(C)c(C(C)=O)c1C this time
21.5 µM (not active)

Same question, C=CCSc1nnc(-c2ccc([N+](=O)[O-])cc2)o1 this time
34.3 µM (not active)

Same question, CCn1nc(-c2ccccc2)nc2c(=O)n(C)c(=O)nc1-2 this time
6.11 µM (not active)

###

Quick reference for pIC50 among some compounds
# target: Kappa-type opioid receptor (Homo sapiens)
# Sequence (P41145 whole entry): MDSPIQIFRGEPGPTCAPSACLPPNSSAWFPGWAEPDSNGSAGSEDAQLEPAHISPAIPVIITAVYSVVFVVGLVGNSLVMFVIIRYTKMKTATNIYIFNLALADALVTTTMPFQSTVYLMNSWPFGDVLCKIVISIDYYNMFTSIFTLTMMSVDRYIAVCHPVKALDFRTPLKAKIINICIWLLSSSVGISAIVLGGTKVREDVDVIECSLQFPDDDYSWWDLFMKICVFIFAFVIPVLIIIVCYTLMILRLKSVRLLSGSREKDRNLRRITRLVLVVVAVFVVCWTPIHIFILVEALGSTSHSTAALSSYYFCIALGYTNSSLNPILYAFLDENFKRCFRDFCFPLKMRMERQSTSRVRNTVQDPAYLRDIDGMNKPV
# Format: functional
Would you please state pIC50, meaning minus log10 of the concentration in mol/L, as a bare number?

For CCOc1cc(CNC2CCCC2)cc(Cl)c1OCc1ccccc1 , what is its reported pIC50?
5.59

Same question, O=C(OCn1ncc(Br)c(Br)c1=O)c1ccc(F)cc1 this time
5.17

###

Quick reference for AC50 among some compounds
# target: Cytochrome P450 3A4 (Homo sapiens, UniProt P08684);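 further: confirmatory qHTS run detecting inhibitors and substrates of CYP3A4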
# Sequence (P08684 whole entry): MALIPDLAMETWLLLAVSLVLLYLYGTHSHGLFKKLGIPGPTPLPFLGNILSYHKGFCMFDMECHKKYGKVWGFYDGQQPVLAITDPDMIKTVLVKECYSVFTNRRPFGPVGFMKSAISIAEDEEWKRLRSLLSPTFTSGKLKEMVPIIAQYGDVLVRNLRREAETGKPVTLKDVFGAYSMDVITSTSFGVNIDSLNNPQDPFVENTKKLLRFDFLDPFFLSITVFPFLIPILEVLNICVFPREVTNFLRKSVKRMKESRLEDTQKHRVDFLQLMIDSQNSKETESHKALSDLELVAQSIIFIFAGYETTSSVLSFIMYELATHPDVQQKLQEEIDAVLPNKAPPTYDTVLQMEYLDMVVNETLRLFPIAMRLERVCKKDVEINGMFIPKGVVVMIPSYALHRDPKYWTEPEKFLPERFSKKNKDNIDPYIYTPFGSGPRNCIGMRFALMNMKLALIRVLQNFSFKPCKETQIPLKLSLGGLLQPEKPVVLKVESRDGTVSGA
# run-parameters: Potency

Solved entries (count: 6):
CCCCCCCC#Cc1ccccc1C(NC(=O)OC)C(C(=O)OC)C(=O)OC (configuration not stated)
3.16 µM (inconclusive)
CC(=O)OC1CCC2C3CCc4cc(O)ccc4C3CCC12C (configuration not stated)
39.8 µM (inconclusive)
CCCCCC[C@H]1C(=O)O[C@H](C)[C@H](NC(=O)c2cccc(NC=O)c2O)C(=O)O[C@@H](C)[C@@H]1OC(=O)CC(C)C [ANTIMYCIN A]
6.31 µM (inconclusive)
FC(F)(F)c1ccc(CN2C[C@@H]3C(c4ccccc4)C4(c5ccccc5)CC3(C4)[C@H]2c2ccccc2)cc1 (some centres not stated)
15.8 µM (inconclusive)
CC(C)=CCCC1(C)C=Cc2c(O)c3c(c(CC=C(C)C)c2O1)OC12C(=CC4CC1C(C)(C)OC2(C/C=C(/C)C(=O)O)C4=O)C3=O (configuration not stated)
39.8 µM (inconclusive)
NC(=O)c1ccccc1 [BENZAMIDE]
0.005 µM (inconclusive)

For CC(C)CCN1CCc2nc(-c3ccccc3)c3c(c2C1)COC(C)C3 (configuration not stated) , what is its reported AC50?
3.16 µM (inconclusive)

###

Dear all, this message contains AC50 results, target or system Cytochrome P450 2D6 (Homo sapiens, UniProt P10635).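 Further: CYP2D6 member of a cytochrome P450 panel assay.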

Solved entries (count: 2):
O=C1Nc2ccc(F)cc2C12Nc1ccccc1-c1nnc(SCc3ccccc3F)nc1O2 (stereo not given)
14.1 µM (inconclusive)
CS(=O)(=O)Nc1cccc(-c2nccc(NCc3cccs3)n2)c1
25.1 µM (inconclusive)

For CON(c1nc(N(C)C)nc(N(C)C)n1)S(=O)(=O)c1ccccc1Cl , what is its reported AC50?
25.1 µM (inconclusive)

Same question, Cc1noc(C)c1-c1cc(NC2CC2)ncn1 this time
20 µM (inconclusive)

###

# target: Zinc finger protein mex-5 (Caenorhabditis elegans, UniProt Q9XUB2)
# Sequence (Q9XUB2 whole entry): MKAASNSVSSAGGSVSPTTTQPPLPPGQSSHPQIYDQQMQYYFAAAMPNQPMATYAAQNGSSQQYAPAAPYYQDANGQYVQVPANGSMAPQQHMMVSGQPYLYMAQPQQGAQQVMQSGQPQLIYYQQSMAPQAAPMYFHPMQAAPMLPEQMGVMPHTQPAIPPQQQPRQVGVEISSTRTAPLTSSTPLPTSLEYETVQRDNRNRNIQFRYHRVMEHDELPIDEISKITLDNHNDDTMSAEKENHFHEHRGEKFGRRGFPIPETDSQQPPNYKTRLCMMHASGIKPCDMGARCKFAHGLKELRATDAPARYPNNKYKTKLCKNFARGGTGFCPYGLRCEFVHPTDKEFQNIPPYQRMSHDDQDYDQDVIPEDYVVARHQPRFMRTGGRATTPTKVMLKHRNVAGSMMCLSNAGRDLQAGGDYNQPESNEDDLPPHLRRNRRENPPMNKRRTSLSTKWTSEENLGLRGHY
# assay-text: potency of MEX-5 RNA-binding blockers – biochemical, C. elegans, fluorescence polarization, dose response (AID 1960)
Calls of active or inactive are those of the source.
measured-property: EC50

Lab note: need EC50 with Zinc finger protein mex-5 (Caenorhabditis elegans, UniProt Q9XUB2) for entry COc1cccc(C(=O)NCC2CCN(c3ccc(S(=O)(=O)N4CCOCC4)cc3)CC2)c1 , please look it up.
> 300 µM (not active)

Same question, COc1ccc2[nH]c3c(c2c1)CCNC3c1ccc([N+](=O)[O-])o1 (stereo not given) this time
4.34 µM (inconclusive)

Same question, COC(=O)C1CSc2[nH]c(=O)sc2C1c1ccccc1 (stereo not given) this time
7.46 µM (active)

Same question, Cc1ccc(C(=O)C2=C(O)C(=O)N(Cc3ccco3)C2c2ccc(N(C)C)cc2)o1 (stereo not given) this time
> 300 µM (not active)

Same question, CN(C)CCCN/C=C1\C(=O)NC(=O)N(CCc2ccc(F)cc2)C1=O this time
> 300 µM (not active)

###

Quick reference for IC50 among some compounds
# target: DNA dC->dU-editing enzyme APOBEC-3G (Homo sapiens);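 further: Dose-response counterscreen measuring inhibition of APOBEC3G DNA deaminase activity, run while confirming APOBEC3A inhibitors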
# Sequence (Q9HC16 whole entry): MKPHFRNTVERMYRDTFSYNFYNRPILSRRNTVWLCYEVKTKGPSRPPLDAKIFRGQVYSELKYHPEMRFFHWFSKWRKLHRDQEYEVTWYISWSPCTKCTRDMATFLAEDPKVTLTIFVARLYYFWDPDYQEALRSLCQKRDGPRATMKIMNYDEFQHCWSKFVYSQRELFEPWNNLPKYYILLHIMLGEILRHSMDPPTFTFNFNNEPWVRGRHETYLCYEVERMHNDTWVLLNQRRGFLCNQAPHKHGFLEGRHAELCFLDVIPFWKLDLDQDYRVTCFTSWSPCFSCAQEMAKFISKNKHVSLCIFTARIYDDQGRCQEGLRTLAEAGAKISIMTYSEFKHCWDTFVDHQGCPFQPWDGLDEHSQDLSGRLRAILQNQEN
# Assay type: functional
Calls of active or inactive are those of the source.

For C[N+]1(C)[C@@H]2CC[C@H]1C[C@@H](OC(=O)C(CO)c1ccccc1)C2 (stereo not given in full) , what is its reported IC50?
3.18 µM (active)

Same question, CCn1c(SCC(=O)N2CCN(c3ccc(Cl)cc3)CC2)nc2ccccc2c1=O this time
2.57 µM (active)

Same question, C=CCn1c(NC(=O)c2ccc(C)cc2)c(C#N)sc1=N this time
4.44 µM (active)

Same question, CC(=O)c1cccc(OC(=O)c2ccc3c(=O)n4c(nc3c2)CCC4)c1 this time
5.35 µM (active)

Same question, C[n+]1ccccc1/C=C1\Sc2ccccc2N1CCO this time
2.53 µM (active)

###

# target: Fatty acid synthase (Homo sapiens)
# Sequence (P49327 whole entry): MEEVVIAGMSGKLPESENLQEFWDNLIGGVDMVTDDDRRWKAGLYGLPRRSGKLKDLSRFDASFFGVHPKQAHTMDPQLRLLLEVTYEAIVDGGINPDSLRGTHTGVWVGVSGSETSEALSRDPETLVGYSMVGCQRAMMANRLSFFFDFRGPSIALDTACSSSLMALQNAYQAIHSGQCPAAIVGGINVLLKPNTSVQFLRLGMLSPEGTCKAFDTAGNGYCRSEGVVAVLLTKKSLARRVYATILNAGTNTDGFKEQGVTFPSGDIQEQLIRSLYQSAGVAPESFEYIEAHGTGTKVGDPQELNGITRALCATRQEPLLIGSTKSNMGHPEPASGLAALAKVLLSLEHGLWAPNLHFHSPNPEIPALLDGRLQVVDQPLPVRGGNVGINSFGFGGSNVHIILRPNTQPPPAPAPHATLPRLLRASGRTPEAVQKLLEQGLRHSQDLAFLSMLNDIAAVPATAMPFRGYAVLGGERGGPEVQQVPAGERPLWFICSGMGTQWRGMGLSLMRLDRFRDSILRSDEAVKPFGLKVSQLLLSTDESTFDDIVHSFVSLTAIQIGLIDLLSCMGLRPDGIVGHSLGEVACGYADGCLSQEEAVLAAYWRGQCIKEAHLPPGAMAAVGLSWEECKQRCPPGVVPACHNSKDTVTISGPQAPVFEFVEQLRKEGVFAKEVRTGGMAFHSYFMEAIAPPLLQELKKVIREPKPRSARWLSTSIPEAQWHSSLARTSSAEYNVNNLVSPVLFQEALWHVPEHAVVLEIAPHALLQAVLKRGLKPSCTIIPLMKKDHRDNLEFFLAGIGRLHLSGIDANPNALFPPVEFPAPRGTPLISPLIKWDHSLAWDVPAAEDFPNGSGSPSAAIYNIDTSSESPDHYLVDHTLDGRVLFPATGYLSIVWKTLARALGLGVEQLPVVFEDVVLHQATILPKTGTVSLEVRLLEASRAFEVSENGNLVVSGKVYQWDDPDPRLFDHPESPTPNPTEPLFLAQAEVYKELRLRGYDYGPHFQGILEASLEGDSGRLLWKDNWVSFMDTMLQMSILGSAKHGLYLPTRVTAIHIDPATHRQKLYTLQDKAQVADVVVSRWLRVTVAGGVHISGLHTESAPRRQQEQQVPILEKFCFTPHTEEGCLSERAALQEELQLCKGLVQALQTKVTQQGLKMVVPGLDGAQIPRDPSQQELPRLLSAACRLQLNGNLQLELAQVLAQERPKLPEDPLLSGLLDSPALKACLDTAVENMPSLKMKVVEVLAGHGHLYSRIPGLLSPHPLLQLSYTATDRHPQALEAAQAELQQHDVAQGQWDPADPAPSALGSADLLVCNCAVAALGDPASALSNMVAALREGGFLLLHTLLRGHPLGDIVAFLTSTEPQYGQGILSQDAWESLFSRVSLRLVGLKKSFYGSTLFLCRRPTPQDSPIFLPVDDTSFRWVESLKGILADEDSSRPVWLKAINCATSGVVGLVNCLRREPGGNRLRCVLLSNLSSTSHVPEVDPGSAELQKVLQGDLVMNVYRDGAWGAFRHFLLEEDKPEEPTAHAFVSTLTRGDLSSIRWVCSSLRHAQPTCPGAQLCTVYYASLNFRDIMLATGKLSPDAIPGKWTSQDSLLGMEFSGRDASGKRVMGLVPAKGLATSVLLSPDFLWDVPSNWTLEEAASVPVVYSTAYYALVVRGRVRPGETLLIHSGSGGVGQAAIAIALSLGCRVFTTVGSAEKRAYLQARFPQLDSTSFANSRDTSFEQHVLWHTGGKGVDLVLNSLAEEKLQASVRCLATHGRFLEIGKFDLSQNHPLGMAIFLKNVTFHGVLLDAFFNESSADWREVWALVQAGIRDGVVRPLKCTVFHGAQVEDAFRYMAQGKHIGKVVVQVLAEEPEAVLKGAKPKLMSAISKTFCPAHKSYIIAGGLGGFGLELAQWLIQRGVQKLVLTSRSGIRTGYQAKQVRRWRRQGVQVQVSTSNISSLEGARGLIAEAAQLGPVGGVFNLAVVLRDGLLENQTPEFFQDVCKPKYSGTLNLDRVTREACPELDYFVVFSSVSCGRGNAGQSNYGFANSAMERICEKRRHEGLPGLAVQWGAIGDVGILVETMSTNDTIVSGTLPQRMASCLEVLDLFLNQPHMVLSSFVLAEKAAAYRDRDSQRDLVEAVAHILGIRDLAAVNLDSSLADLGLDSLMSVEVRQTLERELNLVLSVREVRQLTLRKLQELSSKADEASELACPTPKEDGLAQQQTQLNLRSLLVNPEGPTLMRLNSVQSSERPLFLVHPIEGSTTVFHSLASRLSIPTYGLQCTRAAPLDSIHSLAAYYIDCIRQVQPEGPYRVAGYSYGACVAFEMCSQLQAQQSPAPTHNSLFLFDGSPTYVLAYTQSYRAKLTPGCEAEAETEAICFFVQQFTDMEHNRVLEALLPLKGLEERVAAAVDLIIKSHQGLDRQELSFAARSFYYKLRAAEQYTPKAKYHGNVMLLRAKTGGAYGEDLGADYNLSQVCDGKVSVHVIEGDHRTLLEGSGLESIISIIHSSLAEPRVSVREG
# assay-text: inhibition of human FAS-TE enzyme activity – biochemical, kinetic fluorescence intensity, dose response (AID 624326);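 further: rate of fluorescence rise from hydrolysis of a fluorogenic O-methyl fluorescein ester substrate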
# Type: functional
Active and inactive are the calls of the source.
measured-property: IC50

Solved entries (count: 6):
COC(=O)N1C(=O)[C@](CC(C)C)(c2ccccc2)N1C(=O)OC
0.385 µM (active)
O=C(C1CC(c2ccc(Cl)c(Cl)c2)=NO1)N1CCC2(CC1)OCCO2 (configuration not stated)
5.55 µM (active)
C[C@@H]1CN([C@H](C)CO)C(=O)c2cccc(NC(=O)NC3CCCCC3)c2O[C@@H]1CN(C)C(=O)Nc1ccc(C(F)(F)F)cc1
2.26 µM (active)
O=S(=O)(c1ccc(Cl)cc1)N1CCCC(c2nc(-c3ccc(F)cc3)no2)C1 (configuration not stated)
6.27 µM (active)
O=C(Oc1ccccc1C(=O)Nc1ccccc1)c1ccc(Br)c([N+](=O)[O-])c1
5.97 µM (active)
O=C(COC(=O)c1cc([N+](=O)[O-])ccc1N1CCOCC1)Nc1c(Cl)cccc1C(F)(F)F
8.39 µM (active)

Consider the record given below.
For O=C(CN1CCN(S(=O)(=O)c2ccc(Cl)c(C(F)(F)F)c2)CC1)NC(=O)NC1CCCCC1 , what is its reported IC50?
37.1 µM (inactive)

###

# assay-text: DRD fibroblast viability loss – cell-based, non-viral oncogenic, luminescence, dose response (AID 1934)
# Format: functional
# run-parameters: Homo sapiens
Activity calls are given as the source filed them.
measured-property: EC50

O=C(N/N=C/c1cccnc1)c1ccc(NC(=O)C(c2ccccc2)c2ccccc2)cc1
> 150 µM (not active)
CCN1CCN(CCNC(=O)c2ccc(/C=C3/Sc4ccccc4N(Cc4ccccc4C)C3=O)cc2)CC1
9.43 µM (active)

For COc1ccc(-n2nnnc2-c2cccc(OC)c2)cc1 , what is its reported EC50?
2.04 µM (active)

Same question, O=C(c1cccc([N+](=O)[O-])c1)c1ccccn1 this time
> 150 µM (not active)

###

# target: Mu-type opioid receptor (Homo sapiens, UniProt P35372);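 further: U2OS cells with beta-arrestin recruitment to OPRM1 by beta-gal complementation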
# Sequence (P35372 whole entry): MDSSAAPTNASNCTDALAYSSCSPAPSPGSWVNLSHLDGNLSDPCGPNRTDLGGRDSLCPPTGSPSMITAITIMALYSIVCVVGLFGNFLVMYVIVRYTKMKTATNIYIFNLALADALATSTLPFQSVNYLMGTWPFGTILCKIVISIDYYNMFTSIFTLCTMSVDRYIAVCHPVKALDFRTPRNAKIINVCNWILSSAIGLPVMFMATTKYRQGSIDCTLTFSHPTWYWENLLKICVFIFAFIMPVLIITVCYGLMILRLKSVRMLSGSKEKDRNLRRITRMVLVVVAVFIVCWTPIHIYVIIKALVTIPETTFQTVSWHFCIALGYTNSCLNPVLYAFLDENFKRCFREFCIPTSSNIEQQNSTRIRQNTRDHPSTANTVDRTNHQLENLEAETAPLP
# Type: functional, cell-based
Active and inactive are the calls of the source.
measured-property: EC50

CN1CCc2cc(O)cc3c2[C@H]1Cc1ccc(O)c(O)c1-3
92.4 µM (inactive)
CCC(c1nnnn1-c1ccc2c(c1)OCCO2)N1CCN(C/C=C/c2ccccc2)CC1 (centres undefined)
92.6 µM (inactive)
CC(C)C[C@H]1C(=O)N2CCC[C@H]2[C@]2(O)O[C@](NC(=O)[C@@H]3C=C4c5cccc6[nH]c(Br)c(c56)CC4N(C)C3)(C(C)C)C(=O)N12 (some centres undefined)
92.5 µM (inactive)

Consider the record given below.
For CCS(=O)(=O)N1CCC(C(=O)NCCCN2CCN(c3ccccc3F)CC2)CC1 , what is its reported EC50?
92.5 µM (inactive)
